Attribution: paper PMC10475017

melting point values, listed per item

Take a look at these entries with their results.
Cn1c(=O)cc(Cl)n(Cc2nc3ccc(Br)cc3c(=O)n2-c2cccc(Cl)c2)c1=O ... 259 to 260 °C
Cn1c(=O)cc(Cl)n(Cc2nc3ccc(Br)cc3c(=O)n2-c2cccc(F)c2)c1=O ... 243 to 244 °C

Kindly consider the entry below.
Endpoint output: melting point of Cn1c(=O)cc(Cl)n(Cc2nc3ccc(Br)cc3c(=O)n2-c2cccc(C#N)c2)c1=O . Value?
255 to 257 °C

* * *

ASSAY ENDPOINT: melting point

Take a look at these entries with their results.
Cn1c(=O)cc(Cl)n(Cc2nc3ccc(Br)cc3c(=O)n2-c2ccccc2)c1=O [Compound 6a] ... 246 to 248 °C
Cn1c(=O)cc(Cl)n(Cc2nc3ccc(Br)cc3c(=O)n2-c2cccc(Br)c2)c1=O [Compound 6e] ... 251 to 252 °C
Cn1c(=O)cc(Cl)n(Cc2nc3ccc(Br)cc3c(=O)n2-c2ccc(F)cc2)c1=O [Compound 6f.] ... 240 to 242 °C

Kindly consider the entry below.
Endpoint output: melting point of Cn1c(=O)cc(Cl)n(Cc2nc3ccc(Br)cc3c(=O)n2-c2ccc(Cl)cc2)c1=O [Compound 6g] . Value?
225 to 226 °C
